Values from patent US7151105B2

target: Recombinant HCV polymerase (Hepatitis C virus genotype 1b, UniProt P26663); construct: Recombinant HCV polymerase was tested for its ability to perform primer/template-directed transcription; assay: biochemical; settings: inhibition of polymerase-directed transcription; 30 min at 30° C; 30 nM enzyme; cpm data in triplicate
Sequence (P26663 2420-3010): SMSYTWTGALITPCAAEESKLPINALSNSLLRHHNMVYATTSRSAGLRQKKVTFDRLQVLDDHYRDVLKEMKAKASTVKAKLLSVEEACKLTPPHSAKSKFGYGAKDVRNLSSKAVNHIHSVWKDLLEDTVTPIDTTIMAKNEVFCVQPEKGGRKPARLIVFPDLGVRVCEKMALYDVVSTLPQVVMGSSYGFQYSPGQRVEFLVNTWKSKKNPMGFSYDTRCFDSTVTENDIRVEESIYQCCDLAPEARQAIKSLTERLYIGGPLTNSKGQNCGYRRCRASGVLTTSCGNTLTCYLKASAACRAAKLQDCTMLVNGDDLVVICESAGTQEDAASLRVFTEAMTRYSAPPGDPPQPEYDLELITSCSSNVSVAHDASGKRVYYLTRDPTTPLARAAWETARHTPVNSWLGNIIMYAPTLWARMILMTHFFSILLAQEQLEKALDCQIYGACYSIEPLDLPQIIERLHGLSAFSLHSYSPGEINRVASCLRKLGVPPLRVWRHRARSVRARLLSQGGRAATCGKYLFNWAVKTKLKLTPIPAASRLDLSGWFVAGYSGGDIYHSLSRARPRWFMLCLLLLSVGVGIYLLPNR
REPORTED ENDPOINT: pIC50
Keep it numeric: pIC50 is minus log10 of the concentration in mol/L.

(Q) Provide only the value of recorded pIC50 for CCc1cc(CCC2(C3CCCC3)CC(O)=C(Cc3nc4nc(C)cc(C)n4n3)C(=O)O2)ccc1CN1CCOCC1 (single isomer, unassigned) [A(156)]
(A) 8.30

(Q) Please indicate pIC50 recorded for CCOc1cc(O)c(CC)cc1CCC1(C2CCCC2)CC(O)=C(Cc2nc3nc(C)cc(C)n3n2)C(=O)O1 (single isomer, unassigned) [A(31)]
(A) 8.22

(Q) For the compound CN(C)c1c(CC2=C(O)CC(CCc3ccc(C(C)(C)C#N)c(F)c3)(C3CCCC3)OC2=O)c(C(F)F)nn1C (centres unmarked) [Example B(51)] , report pIC50.
(A) 7.62

###

target: Recombinant HCV polymerase (Hepatitis C virus genotype 1b); construct: Recombinant HCV polymerase was tested for its ability to perform primer/template-directed transcription; assay: biochemical; settings: inhibition of polymerase-directed transcription; 30 min at 30° C; 30 nM enzyme; cpm data in triplicate
Listed here are compounds together with their documented IC50.
Field: numeric (nM). Do not append units.

Recorded results for 6 compounds are shown here.
CC(C)(O)c1ccc(CCC2(C3CCCC3)CC(O)=C(Cc3nc4ncc(Cl)cn4n3)C(=O)O2)cc1Cl (centres unmarked)    67
CCc1ccc(CCCOC)c(CCC2(C3CCCC3)CC(O)=C(Cc3nc4nc(C)cc(C)n4n3)C(=O)O2)c1 (centres unmarked)    12
CCc1cc(CCC2(C3CCCC3)CC(O)=C(Cc3nc4nc(C)cc(C)n4n3)C(=O)O2)ccc1CNC(C)=O (single isomer, unassigned; enantiomer 2) [A(133)]    5
COc1cc(OC)c(CCC2(C3CCCC3)CC(O)=C(Cc3nc(-c4cnccn4)nn3C)C(=O)O2)cc1Cl (centres unmarked)    19
CCCOc1cnc(CC)cc1CCC1(C2CCCC2)CC(O)=C(Cc2nc3nc(C)cc(C)n3n2)C(=O)O1 (single isomer, unassigned) [A(53)]    3
Cc1cc(C)n2nc(CC3=C(O)CC(CCc4cnn(C(C)C)c4)(C4CCCC4)OC3=O)nc2n1 (centres unmarked)    60

(Q) Answer with IC50 of CCc1cc(CCC2(C3CCCC3)CC(O)=C(Cc3nc4nc(C)cc(C)n4n3)C(=O)O2)ccc1Oc1nccs1 (centres unmarked) measured for Recombinant HCV polymerase (Hepatitis C virus genotype 1b).
(A) 4

(Q) Look up Recombinant HCV polymerase (Hepatitis C virus genotype 1b) data: IC50 of CCn1cc(CC2=C(O)CC(CCc3ccc(C(C)(C)C#N)c(F)c3)(C3CCCC3)OC2=O)cn1 (centres unmarked) , then report it.
(A) 83

(Q) Please respond with reported IC50 (system Recombinant HCV polymerase (Hepatitis C virus genotype 1b)) for CCOc1cc(O)c(CC)cc1CCC1(C2CCCC2)CC(O)=C(Cc2nc3nc(C)cc(C)n3n2)C(=O)O1 (single isomer, unassigned) [A(30)] .
(A) 4

(Q) Given Cc1c(CC2=C(O)CC(CCc3ccc(C(C)(C)C#N)c(F)c3)(C3CCCC3)OC2=O)c(=O)n(-c2ccccc2)n1C (centres unmarked) , report its IC50 on Recombinant HCV polymerase (Hepatitis C virus genotype 1b).
(A) 79

(Q) GET IC50 | system: Recombinant HCV polymerase (Hepatitis C virus genotype 1b) | item: COC(=O)c1ccc(CCC2(C3CCCC3)CC(=O)CC(=O)O2)cc1F (centres unmarked)
(A) 22000

(Q) Return reported IC50 for target or system Recombinant HCV polymerase (Hepatitis C virus genotype 1b), item CCc1cc(CCC2(C3CCCC3)CC(O)=C(Cc3nc4nc(C)cc(C)n4n3)C(=O)O2)ccc1CN1CCOCC1 (single isomer, unassigned) [A(157)] .
(A) 10

(Q) Answer with IC50 of COC(=O)c1ccc(CCC2(C3CCCC3)CC(O)=C(Cc3nc4nc(C)cc(C)n4n3)C(=O)O2)cc1F (centres unmarked) measured for Recombinant HCV polymerase (Hepatitis C virus genotype 1b).
(A) 29

(Q) Return reported IC50 for target or system Recombinant HCV polymerase (Hepatitis C virus genotype 1b), item Cc1cc(C)n2nc(CC3=C(O)CC(CCc4ccc([C@@H](C)N)cc4)(C4CCCC4)OC3=O)nc2n1 (some centres unmarked) .
(A) 300

(Q) Enter IC50 (test system Recombinant HCV polymerase (Hepatitis C virus genotype 1b)) for CCc1ccc(OC)c(CCC2(C3CCCC3)CC(O)=C(Cc3nc4nc(C)cc(C)n4n3)C(=O)O2)n1 (centres unmarked)
(A) 39

(Q) Output reported IC50 of the compound CCOc1cnc(CC)cc1CCC1(C2CCCC2)CC(O)=C(Cc2nc3nc(C)cc(C)n3n2)C(=O)O1 (single isomer, unassigned) [A(51)] on Recombinant HCV polymerase (Hepatitis C virus genotype 1b).
(A) 3

(Q) Quote IC50 with test system Recombinant HCV polymerase (Hepatitis C virus genotype 1b) for CCc1cc(CCC2(C3CCCC3)CC(O)=C(Cc3nc4nc(C)cc(C)n4n3)C(=O)O2)c(OCC(C)C)cc1O (centres unmarked)
(A) 3

###

biological target: Recombinant HCV polymerase (Hepatitis C virus genotype 1b, UniProt P26663); construct: Recombinant HCV polymerase was tested for its ability to perform primer/template-directed transcription; assay: biochemical; conditions: inhibition of polymerase-directed transcription; 30 min at 30° C; 30 nM enzyme; cpm data in triplicate
Catalogue of pIC50 readings, one per entry.
The scale used: pIC50 is minus the common logarithm of the concentration in molar units.

Before answering, review these 2 worked examples.
CCc1cc(CCC2(C3CCCC3)CC(O)=C(Cc3nc4ncc(C)cn4n3)C(=O)O2)c(OC)cn1 (stereo not shown)    8.15
CCc1cc(CCC2(C3CCCC3)CC(O)=C(Cc3nc4ncc(C)cn4n3)C(=O)O2)ccc1-c1ncco1 (stereo not shown)    6.52

(Q) Fetch value of pIC50 on Recombinant HCV polymerase (Hepatitis C virus genotype 1b, UniProt P26663) for COc1cnc(C)cc1CCC1(C2CCCC2)CC(=O)CC(=O)O1 (stereo not shown) .
(A) 4.95

(Q) State pIC50 on Recombinant HCV polymerase (Hepatitis C virus genotype 1b, UniProt P26663). Entry: CCc1cc(CCC2(C3CCCC3)CC(O)=C(Cc3nc4ncc(C)cn4n3)C(=O)O2)cc(CC)n1 (stereo not shown)
(A) 7.52

(Q) Please report pIC50 with Recombinant HCV polymerase (Hepatitis C virus genotype 1b, UniProt P26663) for item CCc1cc(CCC2(C3CCCC3)CC(O)=C(Cc3nc4nc(C)cc(C)n4n3)C(=O)O2)c(OCC2CC2)cc1O (stereo not shown) .
(A) 8.30

(Q) Name the value of pIC50 reported for CCc1cc(CCC2(C3CCCC3)CC(O)=C(Cc3nc4nc(C)cc(C)n4n3)C(=O)O2)c(OCC2CCC2)cc1O (stereo not shown) when tested on Recombinant HCV polymerase (Hepatitis C virus genotype 1b, UniProt P26663).
(A) 8.52

(Q) Please report pIC50 with Recombinant HCV polymerase (Hepatitis C virus genotype 1b, UniProt P26663) for item Cc1cc(C)n2nc(CC3=C(O)CC(CCc4ccc(S(C)(=O)=O)c(Cl)c4)(C4CCCC4)OC3=O)nc2n1 (stereo not shown) .
(A) 7.22

(Q) Give Recombinant HCV polymerase (Hepatitis C virus genotype 1b, UniProt P26663) pIC50 for the following molecule: CCc1cc(CCC2(C3CCCC3)CC(=O)CC(=O)O2)ccc1-c1ncco1 (stereo not shown)
(A) 6.68

(Q) Give the observed pIC50 of CCOc1cc(O)c(CC)cc1CCC1(C2CCCC2)CC(O)=C(Cc2nc3ncc(C)cn3n2)C(=O)O1 (stereo not shown) [A(26)] for Recombinant HCV polymerase (Hepatitis C virus genotype 1b, UniProt P26663).
(A) 8.40

###

target: Recombinant HCV polymerase (Hepatitis C virus genotype 1b); construct: Recombinant HCV polymerase was tested for its ability to perform primer/template-directed transcription; test: biochemical; conditions: inhibition of polymerase-directed transcription; 30 min at 30° C; 30 nM enzyme; cpm data in triplicate
List of pIC50 values.
Worth noting: pIC50 values are minus log10 of concentrations stated in mol/L.

Cn1cc(CC2=C(O)CC(CCc3ccc(C(C)(C)C#N)c(Cl)c3)(C3CCCC3)OC2=O)cn1 (stereo not drawn)    7.00

(Q) Quickly give me recorded pIC50 for C[C@@H](NS(=O)(=O)CC(F)(F)F)c1ccc(CCC2(C3CCCC3)CC(=O)CC(=O)O2)cc1 (stereo partly drawn)
(A) 4.57

(Q) Identify measured pIC50 corresponding to CCc1cc(CCC2(C3CCCC3)CC(O)=C(Cc3nc4nc(C)cc(C)n4n3)C(=O)O2)c(OC)cn1 (single isomer, unassigned) [A(39)]
(A) 8.22
